Molecular target: D(3) dopamine receptor (Rattus norvegicus)
Sequence (P19020 whole entry): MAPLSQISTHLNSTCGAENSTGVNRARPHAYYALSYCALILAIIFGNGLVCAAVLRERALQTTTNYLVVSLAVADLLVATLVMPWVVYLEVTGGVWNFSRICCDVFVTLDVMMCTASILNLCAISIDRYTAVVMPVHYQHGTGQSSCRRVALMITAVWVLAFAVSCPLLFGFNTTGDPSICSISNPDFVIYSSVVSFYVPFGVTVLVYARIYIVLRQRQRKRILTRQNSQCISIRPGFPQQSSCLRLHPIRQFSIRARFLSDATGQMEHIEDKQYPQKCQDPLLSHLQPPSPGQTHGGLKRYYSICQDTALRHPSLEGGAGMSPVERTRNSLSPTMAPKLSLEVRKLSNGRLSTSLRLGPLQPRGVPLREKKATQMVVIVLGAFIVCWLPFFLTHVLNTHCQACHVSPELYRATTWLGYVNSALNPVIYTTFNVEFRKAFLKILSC
Test: Effective concentration was determined as thymidine uptake in CHO-L6 cells transfected with the rat Dopamine receptor D3 by mitogenesis assay
Type: functional, cell-based
experimental.readout: pEC50
Just so you know, pEC50 here is -log10 of the concentration in molar units; reply with that number alone.

Need pEC50, item CCCN[C@H]1CCc2nc(N)sc2C1 [PRAMIPEXOLE]
9.68

----------
Assay: Log d of compound was determined
Assay type: physicochemical
Conditions: octanol/water
experimental.readout: logD
Give your answer as a number; write no unit.

| molecule | numeric.readout |
| --- | --- |
| CCCN(CCC)C1Cc2cc3nc(N)sc3cc2C1 (configuration not stated) | 1.66 |

Attention now turns to another entry.
Need logD, item CCCNC1Cc2cc3nc(N)sc3cc2C1 (configuration not stated)
0.19

----------
Catalogue of pKi readings, one per entry.
Target: D(2) dopamine receptor (Homo sapiens, UniProt P14416)
Sequence (P14416 whole entry): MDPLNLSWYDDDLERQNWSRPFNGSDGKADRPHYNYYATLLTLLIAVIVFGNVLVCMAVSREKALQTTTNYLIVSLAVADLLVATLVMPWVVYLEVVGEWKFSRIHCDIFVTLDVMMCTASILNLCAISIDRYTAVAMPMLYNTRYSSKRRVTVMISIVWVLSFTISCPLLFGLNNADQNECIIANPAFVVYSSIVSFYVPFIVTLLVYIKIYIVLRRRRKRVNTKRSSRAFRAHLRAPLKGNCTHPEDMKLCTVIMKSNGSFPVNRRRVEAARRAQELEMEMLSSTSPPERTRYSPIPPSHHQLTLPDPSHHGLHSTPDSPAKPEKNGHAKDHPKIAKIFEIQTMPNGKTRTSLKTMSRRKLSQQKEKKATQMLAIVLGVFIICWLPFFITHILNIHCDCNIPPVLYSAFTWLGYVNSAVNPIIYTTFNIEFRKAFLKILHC
Test: in vitro binding affinity was determined on human Dopamine receptor D2L expressed in chinese hamster ovary(CHO) K-1 cells using [3H]-0437 as radioligand.
Type: cell-based, CHO-K1
Just so you know, pKi here is -log10 of the concentration in molar units; reply with that number alone.

| compound | numeric.readout |
| --- | --- |
| CCCN(CCC)C1COc2c(ccc3sc(N)nc23)C1 (configuration not stated) | 6.27 |

Attention now turns to another entry.
Give D(2) dopamine receptor (Homo sapiens, UniProt P14416) pKi for CCCN(CCC)C1COc2ccc3nc(N)sc3c2C1 (configuration not stated)
7.33

----------
Target: D(2) dopamine receptor (Homo sapiens, UniProt P14416)
Assay: in vitro binding affinity was determined on human Dopamine receptor D2L expressed in chinese hamster ovary(CHO) K-1 cells using [3H]NPA as radioligand.
Type: cell-based, CHO-K1
experimental.readout: Ki
Your reply should be a number followed by the unit it is expressed in.

| compound | Ki |
| --- | --- |
| CCCNC1Cc2cc3nc(N)sc3cc2C1 (stereo not drawn) | 1350 nM |

Need Ki, item CCCN(CCC)C1Cc2ccc3nc(N)sc3c2C1 (stereo not drawn)
500 nM

Same question, CCCN(CCC)C1Cc2cc3nc(N)sc3cc2C1 (stereo not drawn) this time
27 nM

The measured values listed here are drawn from ChEMBL document CHEMBL1133651.
